Biological target: DNA gyrase (Escherichia coli, UniProt P0AES4+P0AES6)
Assay: Inhibition of full length Escherichia coli DNA gyrase ATPase activity measured for 20 mins by lactate dehydrogenase assay
measurement_type: IC50 (µM)

Oc1ccc(Oc2ccc(C(F)(F)F)cc2Cl)cc1: 100
Oc1ccc(Oc2cccc(C(F)(F)F)c2)cc1: 240
CC(C)(c1ccccc1)c1ccc(O)cc1: 390

P: Cc1ccc(CCC(=O)O)cc1
Q: Oc1ccc(Oc2cccc(Cl)c2)cc1
R: Oc1ccc(Oc2ccc(C(F)(F)F)cc2)cc1
S: Cc1cc(Oc2ccc(Cl)cc2Cl)ccc1O
Query: Task for the reader: rank each entry by its IC50, from the minimum upward. Answer format: the labels, ordered as requested.
Reply: S, P, R, Q

1: Oc1ccc(Oc2ccc(Cl)cc2Cl)cc1
2: Oc1ccc(Oc2ccc(Cl)cc2)cc1
Query: Please indicate which entry, 1 or 2 , has the lower recorded IC50 value. Return value: the label identifying the chosen record.
Reply: 1
(1: 120 µM, 2: 270 µM)
